Entries and their OD450 at 13.33 nM values follow.
Molecular target: biotinylated labeled human GPC3 protein (produced in-house) (human, UniProt P51654 25-559, limits assumed, biotinylated (Dojindo, Cat. No. LK03); sites not stated)
Test: ELISA, biotinylated human GPC3 protein
Answer in OD450, number only, no unit symbol.

Please review the following examples before continuing.
Which OD450 at 13.33 nM is reported for this binder? hAb006LH3L1 (antibody, human IgG1, V domains shown, Humanized F3.38.7; VH H3 + VL L1; expressed as human IgG1) VH: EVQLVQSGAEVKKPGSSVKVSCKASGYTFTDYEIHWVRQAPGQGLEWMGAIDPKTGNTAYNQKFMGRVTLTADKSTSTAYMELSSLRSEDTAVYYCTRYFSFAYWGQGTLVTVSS VL: DIVMTQTPLSLPVTPGEPASISCRSSQTFVHSNGNTYLQWYLQKPGQSPQLLIYKVSNRFSGVPDRFSGSGSGTDFTLKISRVEAEDVGVYYCFQGSHVPYTFGQGTKLEIK
2.25

Which OD450 at 13.33 nM is reported for this binder? hAb007LH3L1b (antibody, human IgG1, V domains shown, Humanized F3.81.19; VH H3 + VL L1b; expressed as human IgG1) VH: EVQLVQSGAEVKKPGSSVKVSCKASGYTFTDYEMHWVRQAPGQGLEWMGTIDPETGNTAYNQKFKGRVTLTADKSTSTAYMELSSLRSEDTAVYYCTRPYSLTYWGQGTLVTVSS VL: DIVMTQTPLSLPVTPGEPASISCRSSQSFVHSNRDTYLQWYLQKPGQSPQLLIYKVSNRFSGVPDRFSGSGSGTDFTLKISRVEAEDVGVYYCFQGSHVPYTFGQGTKLEIK
2.25

With those in mind, consider the next binder.
Which OD450 at 13.33 nM is reported for this binder? hAb007LH2L1 (antibody, human IgG1, V domains shown, Humanized F3.81.19; VH H2 + VL L1; expressed as human IgG1) VH: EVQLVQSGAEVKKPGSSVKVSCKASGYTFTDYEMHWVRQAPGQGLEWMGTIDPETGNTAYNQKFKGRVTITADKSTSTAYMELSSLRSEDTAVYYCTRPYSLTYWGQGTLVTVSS VL: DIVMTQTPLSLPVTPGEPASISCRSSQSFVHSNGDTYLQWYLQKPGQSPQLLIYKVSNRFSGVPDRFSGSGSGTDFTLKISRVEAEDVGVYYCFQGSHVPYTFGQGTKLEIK
2.33
